Cited source for all entries: patent US20230074558A1

# reported pEC50; entries follow
target: R232 hSTING variant (Homo sapiens, UniProt Q86WV6, H232R); assay: IRF3 reporter induction in THP1-Dual KI-hSTING-R232 Cells; conditions: THP1-Dual KI-hSTING-R232 Cells (R232 haplotype)
Sequence (Q86WV6 whole entry H232R): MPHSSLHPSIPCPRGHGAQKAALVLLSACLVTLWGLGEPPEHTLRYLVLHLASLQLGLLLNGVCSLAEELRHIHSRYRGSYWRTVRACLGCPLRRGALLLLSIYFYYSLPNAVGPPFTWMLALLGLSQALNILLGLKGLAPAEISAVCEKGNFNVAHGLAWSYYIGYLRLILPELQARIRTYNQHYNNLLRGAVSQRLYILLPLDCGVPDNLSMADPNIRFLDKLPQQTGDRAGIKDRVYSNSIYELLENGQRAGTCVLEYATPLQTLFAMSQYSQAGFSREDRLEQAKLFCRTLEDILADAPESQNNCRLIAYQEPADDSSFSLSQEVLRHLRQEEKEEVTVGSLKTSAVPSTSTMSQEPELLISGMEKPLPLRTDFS
pEC50: −log10 of the molar value.

Prompt line: Bench note: what pEC50 did COc1cc2sc(C(=O)CCC(=O)O)cc2cc1NC(=O)C1(C(=O)Nc2cc3cc(C(=O)CCC(=O)O)sc3cc2OC)CCOCC1 show?
Response line: ≤ 5.00

----------
target: R232 hSTING variant (Homo sapiens, UniProt Q86WV6, H232R); assay: IRF3 reporter induction in THP1-Dual KI-hSTING-R232 Cells; details: THP1-Dual KI-hSTING-R232 Cells (R232 haplotype)
# reported EC50; entries follow

molecule	EC50
COc1cc2sc(C(=O)CCC(=O)O)cc2cc1NC(=O)C1CCN(c2cc3cc(C(=O)CCC(=O)O)sc3cc2OC)C1=O (stereo not shown)	≥ 10 µM

Prompt line: Bench note: what EC50 did COc1cc2sc(C(=O)CCC(=O)O)cc2cc1NC(=O)CCOc1c(OC)cc2sc(C(=O)CCC(=O)O)cc2c1F show?
Response line: < 1 µM

Prompt line: Another molecule: COc1cc2sc(C(=O)CCC(=O)O)cc2cc1NC(=O)C1(C(=O)Nc2cc3cc(C(=O)CCC(=O)O)sc3cc2OC)CCC1
Response line: ≥ 10 µM

Prompt line: Another molecule: COc1cc2sc(C(=O)CCC(=O)O)cc2cc1NC(=O)COc1c(OC)cc2sc(C(=O)CCC(=O)O)cc2c1F
Response line: ≥ 10 µM

----------
target: R232 hSTING variant (Homo sapiens, UniProt Q86WV6, H232R); test: IRF3 reporter induction in THP1-Dual KI-hSTING-R232 Cells; details: THP1-Dual KI-hSTING-R232 Cells (R232 haplotype)
reported.property: EC50

Solved cases (5 shown):
C=C(COc1cc2cc(C(=O)CCC(=O)O)sc2cc1OC)COc1cc2cc(C(=O)CCC(=O)O)sc2cc1OC ≥ 10 µM
COc1cc2sc(C(=O)CCC(=O)O)cc2c(F)c1OCC(=CC(=O)F)COc1c(OC)cc2sc(C(=O)CCC(=O)O)cc2c1F ≥ 10 µM
C=C(COc1c(OC)cc2sc(C(=O)CCC(=O)OC)nc2c1F)COc1c(OC)cc2sc(C(=O)CCC(=O)OC)nc2c1F ≥ 10 µM
COc1cc2sc(C(=O)CCC(=O)O)cc2c(F)c1OCC#CCOc1c(OC)cc2sc(C(=O)CCC(=O)O)cc2c1F ≥ 10 µM
COc1cc2sc(C(=O)CCC(=O)O)cc2c(F)c1OCC(=CC(=O)OC(C)(C)C)COc1c(OC)cc2sc(C(=O)CCC(=O)O)cc2c1F ≥ 10 µM

Prompt line: Bench note: what EC50 did COc1cc2sc(C(=O)CCC(=O)O)cc2cc1NC(=O)C1(C(=O)Nc2cc3cc(C(=O)CCC(=O)O)sc3cc2OC)CC1 show?
Response line: ≥ 10 µM

Prompt line: Another molecule: COc1cc2sc(C(=O)CCC(=O)O)cc2cc1NCCC(=O)Nc1cc2cc(C(=O)CCC(=O)O)sc2cc1OC
Response line: ≥ 10 µM

Prompt line: Another molecule: COc1cc2sc(C(=O)CCC(=O)O)cc2cc1CCCC(=O)Nc1cc2cc(C(=O)CCC(=O)O)sc2cc1OC
Response line: ≥ 10 µM

Prompt line: Another molecule: C=C(COc1c(OC)cc2sc(C(=O)CCC(=O)O)cc2c1F)COc1c(OC)cc2sc(C(=O)CCC(=O)O)cc2c1F
Response line: < 1 µM

Prompt line: Another molecule: COc1cc2sc(C(=O)CCC(=O)O)cc2c(F)c1OC/C=C\COc1c(OC)cc2sc(C(=O)CCC(=O)O)cc2c1F
Response line: < 1 µM

Prompt line: Another molecule: COc1cc2sc(C(=O)CCC(=O)O)cc2cc1NC(=O)CC(=O)Nc1cc2cc(C(=O)CCC(=O)O)sc2cc1OC
Response line: ≥ 10 µM
